// provenance: patent US7157487B2

- target-system: integrins haα4 and β1 (VLA-4) expressed on CHO cells (Homo sapiens, UniProt P05556+P13612)
- Sequence (P13612 34-1032): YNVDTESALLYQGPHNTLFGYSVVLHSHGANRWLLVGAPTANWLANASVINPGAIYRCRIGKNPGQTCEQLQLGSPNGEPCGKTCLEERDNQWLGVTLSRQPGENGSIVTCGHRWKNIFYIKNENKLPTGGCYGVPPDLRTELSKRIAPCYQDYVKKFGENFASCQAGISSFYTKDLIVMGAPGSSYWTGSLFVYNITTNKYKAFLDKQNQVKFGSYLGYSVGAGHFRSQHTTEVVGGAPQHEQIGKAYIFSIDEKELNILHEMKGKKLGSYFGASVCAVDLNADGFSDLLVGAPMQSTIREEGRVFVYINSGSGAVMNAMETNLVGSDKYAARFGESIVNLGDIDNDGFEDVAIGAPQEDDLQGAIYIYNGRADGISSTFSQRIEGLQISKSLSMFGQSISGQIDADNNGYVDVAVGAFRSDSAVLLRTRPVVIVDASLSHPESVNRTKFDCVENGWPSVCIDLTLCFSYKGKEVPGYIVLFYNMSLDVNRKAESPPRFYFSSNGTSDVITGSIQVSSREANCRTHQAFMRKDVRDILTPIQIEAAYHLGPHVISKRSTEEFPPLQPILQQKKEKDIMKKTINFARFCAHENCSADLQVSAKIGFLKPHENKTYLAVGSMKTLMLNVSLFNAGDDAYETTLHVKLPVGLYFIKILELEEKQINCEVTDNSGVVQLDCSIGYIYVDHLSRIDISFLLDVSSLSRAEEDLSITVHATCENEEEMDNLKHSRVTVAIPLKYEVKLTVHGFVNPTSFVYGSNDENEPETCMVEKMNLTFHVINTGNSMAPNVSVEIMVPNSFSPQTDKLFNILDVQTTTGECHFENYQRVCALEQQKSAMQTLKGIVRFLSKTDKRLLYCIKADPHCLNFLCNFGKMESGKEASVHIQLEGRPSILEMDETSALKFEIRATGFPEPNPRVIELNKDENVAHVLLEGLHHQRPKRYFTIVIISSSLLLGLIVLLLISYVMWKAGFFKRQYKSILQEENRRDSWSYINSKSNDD
- Sequence (P05556 21-798): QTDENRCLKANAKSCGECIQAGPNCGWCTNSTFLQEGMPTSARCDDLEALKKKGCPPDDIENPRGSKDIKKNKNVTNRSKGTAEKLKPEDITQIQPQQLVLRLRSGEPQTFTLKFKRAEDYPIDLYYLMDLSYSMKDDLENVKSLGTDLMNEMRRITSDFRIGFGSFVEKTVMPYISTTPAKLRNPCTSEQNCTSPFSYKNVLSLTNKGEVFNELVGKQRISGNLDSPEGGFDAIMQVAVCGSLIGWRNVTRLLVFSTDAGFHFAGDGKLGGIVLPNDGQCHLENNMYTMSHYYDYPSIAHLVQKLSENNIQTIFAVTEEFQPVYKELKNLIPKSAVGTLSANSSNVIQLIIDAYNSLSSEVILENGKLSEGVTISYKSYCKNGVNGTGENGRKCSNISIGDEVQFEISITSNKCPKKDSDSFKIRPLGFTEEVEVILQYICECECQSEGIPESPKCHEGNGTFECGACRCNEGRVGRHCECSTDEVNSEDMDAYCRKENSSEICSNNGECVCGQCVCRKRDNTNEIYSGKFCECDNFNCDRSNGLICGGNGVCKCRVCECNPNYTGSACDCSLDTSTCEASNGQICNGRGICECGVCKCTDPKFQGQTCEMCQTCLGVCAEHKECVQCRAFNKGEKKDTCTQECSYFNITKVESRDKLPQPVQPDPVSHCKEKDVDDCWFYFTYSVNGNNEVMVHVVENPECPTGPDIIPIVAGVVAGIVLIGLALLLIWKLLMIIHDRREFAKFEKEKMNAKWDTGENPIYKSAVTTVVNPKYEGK
- test-description: In vitro Evaluation Test (1): binding of Eu3+-hVCAM-1 D1D7-IgG to CHO cells expressing integrins α4 and β1
- assay-context: inhibition of Eu3+-hVCAM-1 D1D7-IgG binding to CHO cells expressing α4β1; Ki calculated from IC50
pKi: −log10 of the molar value.
measured-quantity: pKi

See these solved cases before continuing.
{"molecule": "CO[C@@H]1C[C@@H](CO[C@H]2CC[C@H](C(=O)O)CC2)N(C(=O)Cc2cc(Cl)c(NC(=O)c3cn(C)c4ccccc34)cc2F)C1", "measured-quantity": "pKi", "readout-value": 7.52}
{"molecule": "Cn1cc(C(=O)Nc2cc(F)c(CC(=O)N3C[C@@H](F)C[C@H]3CCN3CCC(C(=O)O)CC3)cc2Cl)c2ccccc21", "measured-quantity": "pKi", "readout-value": 7.60}
{"molecule": "Cc1ccccc1Nc1nc2ccc(CC(=O)N3C[C@@H](F)C[C@H]3COC3CCC(C(=O)O)CC3)c(F)c2o1 (single isomer, unassigned) [26 (Isomer A)]", "measured-quantity": "pKi", "readout-value": 8.70}
{"molecule": "O=C(Cc1ccc(Nc2nc3c(Cl)cccc3s2)c(Cl)c1)N1C[C@@H](F)C[C@H]1CO[C@H]1CC[C@H](C(=O)O)CC1", "measured-quantity": "pKi", "readout-value": 8.20}
{"molecule": "Cc1ccccc1Nc1nc2ccc(CC(=O)N3C[C@@H](F)C[C@H]3COc3ccc(C(=O)O)cc3)c(F)c2o1", "measured-quantity": "pKi", "readout-value": 7.85}
{"molecule": "Cc1ccc(F)cc1Nc1nc2ccc(CC(=O)N(C)[C@@H](C)CO[C@H]3CC[C@H](C(=O)O)CC3)c(F)c2o1", "measured-quantity": "pKi", "readout-value": 7.74}
{"molecule": "O=C(Nc1ccc(CC(=O)N2C[C@@H](F)C[C@H]2CO[C@H]2CC[C@H](C(=O)O)CC2)cc1Cl)c1nccc2ccccc12", "measured-quantity": "pKi", "readout-value": 7.92}

A = CO[C@H]1C[C@@H](CO[C@H]2CC[C@H](C(=O)O)CC2)N(C(=O)Cc2cc(Cl)c(NC(=O)c3cn(C)c4ccccc34)cc2Cl)C1
B = Cc1cc(CC(=O)N2C[C@@H](F)C[C@H]2CO[C@H]2CC[C@H](C(=O)O)CC2)ccc1Nc1nc2ccccc2o1
Lab log: flag the item ( A or B ) with the smaller pKi figure. Refer to your chosen item by its label in the answer.
B
(B: 7.89, A: 8.37)
